- Test system: UACC-257
- Experimental Protocol: NCI tumour cell line growth inhibition, 48 h
Activity calls are given as the source filed them. No stated cut-off is given here; in the data, active = GI50 up to about 1.1 µM and inactive = higher.
The following compounds are listed with their measured GI50 values.

Examples with their reported GI50 follow.
C/C(CC(=O)Nc1ccccc1C)=N/NS(=O)(=O)c1ccc(C)cc1 | > 100 µM (inactive)
CC(C)(C)C1CCN(C(=O)c2ccccc2)CC1 | 41.1 µM (inactive)
COc1ccc(/N=N/C(=N\c2ccc(F)cc2)c2ccc(N(CCC#N)CCC#N)cc2)cc1 | 19 µM (inactive)
COc1cc(CNc2nc3ccccc3nc2-c2cccs2)cc(OC)c1OC | 34 µM (inactive)
CCCCCCCCCCCCCC[C@@H](O)[C@H]1CC[C@H]([C@H]2CC[C@H]([C@H](O)CCCCCC[C@@H](O)CC3=C[C@H](C)OC3=O)O2)O1 | 3.65 µM (inactive)

Exercise: Would you mind telling me what GI50 value was observed for C/C(CC(=O)Nc1cc(C)ccc1C)=N\NC(=O)c1ccncc1 ?
Key: > 100 µM (inactive)

Exercise: Returns the measured GI50 for the input compound. Input: C/C(=N\NS(=O)(=O)c1c(C)cc(C)cc1C)c1ccc[n+]([O-])n1
Key: 10.3 µM (inactive)

These data points were gathered from ChEMBL document CHEMBL1201862.
